The entries below come with measured GI50 values attached.
Tested on: NCI-H23
Test: NCI tumour cell line growth inhibition, 48 h
Calls of active or inactive are those of the source. Rule as the data show it: active = GI50 up to about 1.1 µM and inactive = higher.

In the examples that follow, each entry is paired with its recorded GI50.
| compound | target under test | GI50 |
| --- | --- | --- |
| CC(C)=C1C(=O)C[C@@]2(C)C[C@H]3OC3(C)CC/C=C(/C)CCC12 (stereo not given in full) | NCI-H23 | 91.8 µM (inactive) |
| COc1ccc(Cc2coc3ccccc3c2=O)cc1OC | NCI-H23 | 28.3 µM (inactive) |
| COc1ccc(/C(Cl)=C(\CNc2ccccn2)c2ccccc2)cc1OC | NCI-H23 | > 100 µM (inactive) |
| C=C1C(=O)C[C@@]23CCC[C@@]12CC(O)C3 (stereo not given in full) | NCI-H23 | 21.8 µM (inactive) |
| O=C1c2cccnc2C(=O)C2C3C=CC(C3)C12 (stereo not given) | NCI-H23 | 12.1 µM (inactive) |
| COc1ccc(C23C(=O)c4ccccc4N2O[C@H]2C(=O)N(c4ccccc4)C(=O)[C@H]23)cc1 (stereo not given in full) | NCI-H23 | > 100 µM (inactive) |
| COc1ccc(-n2cnn3c(=O)c4cn[nH]c4nc23)cc1 | NCI-H23 | > 10 µM (inactive) |
| ClCCN(CCCl)c1ccc(/C=N/Nc2ccnc3ccccc23)cc1 | NCI-H23 | 2.01 µM (inactive) |

Ask: Find the recorded GI50 belonging to `COC(=O)c1cc(C)n(CN(Cn2nc(C(=O)OC)cc2C)c2ccccc2)n1` and report it.
Reply: 25.2 µM (inactive)

Ask: How about this compound: `Cc1ccc(-c2n[nH]c(=O)n2/N=C\c2ccccc2O)cc1`
Reply: > 100 µM (inactive)

Ask: How about this compound: CC(C)(C)c1ccc(O)c(C(O)c2cccnc2)c1 (stereo not given)
Reply: > 100 µM (inactive)

Ask: How about this compound: CCC(C(=O)c1ccccc1)C(CCCC(=O)Nc1c(C)cccc1C)N=O (stereo not given)
Reply: > 100 µM (inactive)

Ask: How about this compound: `CC1=C(C(=O)Nc2ccc([N+](=O)[O-])cc2)C(c2ccccc2F)C(C(=O)Nc2ccc([N+](=O)[O-])cc2)=C(C)N1`
Reply: 11.2 µM (inactive)

Ask: How about this compound: `O=C(Nc1ccc2ccccc2c1)c1cc2cc(CCl)ccc2oc1=O`
Reply: 19 µM (inactive)

Ask: How about this compound: `CN(C)S(=O)(=O)c1ccc2c(c1)/C(=C1/Nc3ccccc3C1=O)C(=O)N2`
Reply: 16.1 µM (inactive)

Ask: How about this compound: COc1ccc2nc(NC(=O)C(=O)C(C#N)c3ccc(Cl)c(Cl)c3)sc2c1 (stereo not given)
Reply: 75.9 µM (inactive)

Ask: How about this compound: C=C1CC(c2ccc(OCCCN3C(=O)c4ccccc4C3=O)cc2)OC1=O (stereo not given)
Reply: 2.35 µM (inactive)

Ask: How about this compound: COC(O)C(=O)c1ccc2c(c1)CC1(C2)Cc2cc3c(cc2C1=O)CCC3 (stereo not given)
Reply: 24.5 µM (inactive)

Ask: How about this compound: `CCCCc1c(O)nc(Nc2nc3ccccc3[nH]2)[nH]c1=O`
Reply: > 100 µM (inactive)

Ask: How about this compound: `CSc1nc(O)c(C#N)c(-c2ccccc2)n1`
Reply: > 100 µM (inactive)

Ask: How about this compound: CC1(C)CC2(C)CC1CC2(O)c1ccccc1 (stereo not given)
Reply: > 100 µM (inactive)

Ask: How about this compound: `COC(=O)c1ccccc1/C=C1\Cc2ccc3c(c2C1=O)CCC3`
Reply: > 100 µM (inactive)

Ask: How about this compound: COc1ccc(C(=O)C(Br)C(Br)C(=O)O)cc1 (stereo not given)
Reply: 39.4 µM (inactive)

Ask: How about this compound: `CCOC(=O)/C([O-])=C(\C(=O)OCC)[n+]1c(C)n(C)c2ccccc21`
Reply: > 100 µM (inactive)

Ask: How about this compound: `CC1(C)S[C@@H]2[C@H](NC(=O)[C@H](N)c3ccccc3)C(=O)N2[C@H]1C(=O)O`
Reply: > 100 µM (inactive)
